target_under_test: Dipeptidyl peptidase 4 (Sus scrofa, UniProt P22411)
Sequence (P22411 whole entry): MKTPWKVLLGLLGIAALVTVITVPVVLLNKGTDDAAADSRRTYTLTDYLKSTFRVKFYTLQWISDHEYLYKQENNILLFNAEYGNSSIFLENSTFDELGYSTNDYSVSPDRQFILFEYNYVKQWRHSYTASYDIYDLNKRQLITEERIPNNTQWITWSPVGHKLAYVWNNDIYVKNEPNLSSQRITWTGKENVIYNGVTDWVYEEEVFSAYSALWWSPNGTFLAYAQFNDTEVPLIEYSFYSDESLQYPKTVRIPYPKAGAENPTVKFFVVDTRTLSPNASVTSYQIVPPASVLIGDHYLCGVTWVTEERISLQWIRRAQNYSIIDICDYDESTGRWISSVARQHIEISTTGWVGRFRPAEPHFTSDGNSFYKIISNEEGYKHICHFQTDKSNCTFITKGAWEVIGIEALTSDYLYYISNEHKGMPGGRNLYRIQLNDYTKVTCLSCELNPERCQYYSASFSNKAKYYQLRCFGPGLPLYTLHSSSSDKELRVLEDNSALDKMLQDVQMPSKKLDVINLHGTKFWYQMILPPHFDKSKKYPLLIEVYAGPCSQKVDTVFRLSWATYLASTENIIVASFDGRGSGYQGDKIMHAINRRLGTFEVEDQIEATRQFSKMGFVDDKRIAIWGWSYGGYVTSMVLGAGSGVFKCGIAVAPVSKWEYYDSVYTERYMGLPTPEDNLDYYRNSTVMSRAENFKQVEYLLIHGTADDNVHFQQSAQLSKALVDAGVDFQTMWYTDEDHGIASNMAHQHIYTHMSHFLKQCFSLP
endpoint: IC50 (nM)
Provide the reading as a plain figure in nM.

-- ask State the recorded IC50 for this entry: N[C@@H](CC(=O)N1CCC[C@H]1CNC(=O)c1ccccc1)Cc1ccccc1F
-- reply 410
